Each entry below lists one item and its recorded % transfected, Total value.
Tested on: HUVEC cells
procedureDetails: Transfection uptake of FAM-labelled oligonucleotides (FACS)
Format: cell-based, Human
details: Table 66, 4 hr post-transfection, 200 nM
Method: HUVEC cells (C-003-5C, Invitrogen, primary Human endothelial cells) were used to test the transfection of chemically modified backbones of the Connexin 43 antisense compounds. […] All sequences for the transfection study were labelled with FAM for fluorescence labelling. The transfected cells were analyzed by FACS (fluorescent-activated cell sorting), and confocal microscopy.
Write down the numeric answer in % and omit the unit.

As a guide, the following entries are already answered.
{"substance": "GTAATTGCGGCAAGAAGAATTGTTTCTGT (DNA, phosphodiester; FAM fluorescent label attached, position not given here) [SEQ1-O]", "measurementTarget": "HUVEC cells", "% transfected, Total [%]": 99}
{"substance": "AsCsCsCsAsTsGsTsTsGsCsCsTsGsGsGsCsAsCsC (ACCCATGTTGCCTGGGCACC; chemistry not fully specified) [SEQ4-PTO]", "measurementTarget": "HUVEC cells", "% transfected, Total [%]": 100}
{"substance": "ACCCATGTTGCCTGGGCACC (chemistry not fully specified) [SEQ4-Q]", "measurementTarget": "HUVEC cells", "% transfected, Total [%]": 99}

// switching to the query substance
% transfected, Total recorded for this substance, GsTsAsAsTsTsGsCsGsGsCsAsAsGsAsAsGsAsAsTsTsGsTsTsTsCsTsGsT (GTAATTGCGGCAAGAAGAATTGTTTCTGT; chemistry not fully specified) [SEQ1-PTO] , is 100

---

Tested on: HUVEC cells
procedureDetails: Transfection uptake of FAM-labelled oligonucleotides (FACS)
Format: cell-based, Human
details: Table 66, 4 hr post-transfection, 200 nM
A collection of substances and their measured % transfected, M2
Answer with a number only, understood to be in %.

Use the examples below as a reference point.
{"substance": "AsCsCsCsAsTsGsTsTsGsCsCsTsGsGsGsCsAsCsC (ACCCATGTTGCCTGGGCACC; chemistry not fully specified) [SEQ4-PTO]", "% transfected, M2, %": 9}
{"substance": "GsTsAsAsTsTsGsCsGsGsCsAsAsGsAsAsGsAsAsTsTsGsTsTsTsCsTsGsT (GTAATTGCGGCAAGAAGAATTGTTTCTGT; chemistry not fully specified) [SEQ1-PTO]", "% transfected, M2, %": 26}

Field: next substance
// % transfected, M2 value for ACCCATGTTGCCTGGGCACC (chemistry not fully specified) [SEQ4-Q] : 64

---

Consider the following sequences and their measured Absolute Difference from SEQ1 (relative knockdown) readings.
Test system: Connexin 43 RNA
procedureDetails: Connexin 43 knockdown by qPCR in HUVEC
Format: cell-based, human
details: all-thiophosphoriate linkages in the entire backbone
Reply briefly: the number, and no unit.

Would you please look over these solved cases?
{"biopolymerSequence": "ATATGATCTGCAGGACCCAG (chemistry not given here) [SEQ9/50506]", "resultNumber": 14}
{"biopolymerSequence": "GAAGCGCACATGAGAGATTG (chemistry not given here) [SEQ11]", "resultNumber": 20}
{"biopolymerSequence": "CGCTGGTCCACAATGGCTAG (chemistry not given here) [SEQ6/133705]", "resultNumber": 18}

Documented Absolute Difference from SEQ1 (relative knockdown) of AGGCTGTGCATGGGAGTTAG (chemistry not given here) [SEQ7/1233] : 17

get_value(item= GCTGGCTCTGCTTGAAGGTC (chemistry not given here) [SEQ 5/133705] , readout=Absolute Difference from SEQ1 (relative knockdown)) returns 19
